Origin of values: PubChem BioAssay AID463173

Tested on: DeltatarO mutant
Test: S. aureus survival, RN4220 and DeltatarO strains – OD600, teichoic acid synthesis inhibitors, primary screen (AID 463173)
Conditions: S. aureus RN4220 wild type/DeltatarO growth, OD600, 18 h, screened at 18.75 µg/mL (by protocol)
Among all 52,000 compounds or so, about 4,300 (8.3%) were called active. No stated cut-off is given here; in the data, active means survival mostly below about 52% (no sharp cut-off); inactive means mostly above about 56%. The entries come from a sample that favours actives as a whole.
I would appreciate it if you answered using one of these outcomes: 1 (active), -1 (inactive)

The examples below pair each entry with its known result.
[[record]]
compound = "CCN(C(=O)CSc1nc2ccccc2n1CC(=O)Nc1ccccc1C)c1ccccc1"
measured_on = "DeltatarO mutant"
assigned_class = 1

[[record]]
compound = "Oc1cc2ccsc2c2ccccc12"
measured_on = "DeltatarO mutant"
assigned_class = 1


[Q] Hi, do you know how `COc1ccc(CCNC(=O)CCc2c(C)nc3c(c(C)nn3-c3ccc(C)c(C)c3)c2C)cc1OC` came out in this test?
[A] -1

[Q] Hi, do you know how O=C(NCC(c1cccnc1)N1CCc2ccccc21)c1cccc(F)c1 (stereo unspecified) came out in this test?
[A] 1

[Q] Hi, do you know how CCc1ccccc1NC(=O)C(=O)NCC(c1cccnc1)N1CCc2ccccc21 (stereo unspecified) came out in this test?
[A] -1

[Q] Hi, do you know how COCCN1C(=O)C(=O)/C(=C(/O)c2ccccc2)C1c1ccccc1 (stereo unspecified) came out in this test?
[A] -1

[Q] Hi, do you know how `CCOC(=O)c1ccc(NC(=O)c2oc3c(c2C)-c2nn(Cc4ccccc4Cl)cc2CC3)cc1` came out in this test?
[A] -1

* * *

Test system: DeltatarO mutant
Assay: S. aureus survival, RN4220 and DeltatarO strains – OD600, teichoic acid synthesis inhibitors, primary screen (AID 463173)
Details: S. aureus RN4220 wild type/DeltatarO growth, OD600, 18 h, hits give low values, screened at 18.75 µg/mL (by protocol)
In all, about 52,000 compounds went through this assay and about 4,300 (8.3%) were called active. For the sample, actives were picked, then their nearest neighbours and some compounds at random.
endpoint: survival (%)
Numeric answer only, unit % assumed.

Some compounds with recorded survival:
[[record]]
compound = "COc1ccccc1N1CCN(C(=O)Cc2c(C(=O)O)c(C)cn2C)CC1"
value = -5

[[record]]
compound = "O=C(COCc1cc(-c2ccco2)on1)Nc1cc(Cl)ccc1O"
value = 0


[Q] Specify survival for `O=C(COCc1cc(-c2ccc(F)cc2)on1)Nc1cccc(Cl)c1Cl` and stop.
[A] 46

[Q] Specify survival for `COc1ccc(S(=O)(=O)N2CCN(C)CC2)c(Cl)c1Cl` and stop.
[A] 75

[Q] Specify survival for COc1ccccc1CNC(=O)C(C)n1ccc2cc(S(=O)(=O)N3CCCC3)ccc21 (stereo not drawn) and stop.
[A] 81

[Q] Specify survival for `COc1ccc(C2(CNC(=O)C(=O)Nc3cccc(C(F)(F)F)c3)CCCC2)cc1OC` and stop.
[A] 102

[Q] Specify survival for `CCc1ccc(NC(=O)C2CCN(S(=O)(=O)c3cccc(-c4noc(C)n4)c3)CC2)cc1` and stop.
[A] 77

[Q] Specify survival for `Cc1cccc(N2C(=O)CS/C2=N/NC(=O)c2cccc(Cl)c2)c1` and stop.
[A] 97

[Q] Specify survival for `CCOC(=O)c1c(Nc2ccc(C)c(C)c2)nnc(-c2ccccc2)c1-c1ccccc1` and stop.
[A] -5

[Q] Specify survival for COc1ccc(C)cc1NC(=O)C1CCC(CNS(=O)(=O)c2ccc3c(c2)CCCC(=O)N3)CC1 (stereo not drawn) and stop.
[A] 67

[Q] Specify survival for `O=C(COCc1cc(-c2ccco2)on1)Nc1cccc(Cl)c1Cl` and stop.
[A] 32

[Q] Specify survival for `CCc1cccc(NC(=O)C2CCN(S(=O)(=O)c3cccc(-c4noc(C)n4)c3)CC2)c1` and stop.
[A] 73

[Q] Specify survival for `Cc1ccc(C(C)C)c(OCCCn2c(=O)oc3ccc(C)cc32)c1` and stop.
[A] -5

[Q] Specify survival for `Cc1ccccc1N(C)C(=O)c1noc2c1COc1ccccc1-2` and stop.
[A] 72

[Q] Specify survival for `Cc1cn(C)c(CC(=O)N2CCN(c3ccccc3F)CC2)c1C(=O)O` and stop.
[A] 89

* * *

Tested on: DeltatarO mutant
Experiment: S. aureus survival, RN4220 and DeltatarO strains – OD600, teichoic acid synthesis inhibitors, primary screen (AID 463173)
Conditions: S. aureus RN4220 wild type/DeltatarO growth, OD600, 18 h, hits give low values, screened at 18.75 µg/mL (by protocol)
Among all 52,000 compounds or so, about 4,300 (8.3%) were called active. This excerpt belongs to a sample that is enriched for actives.
The reader will find reported survival values listed item by item below.
Numeric answer only, unit % assumed.

Some compounds with recorded survival:
[[record]]
compound = "COc1ccccc1NC(=O)C1=C(C)Nc2c(C(=O)Nc3cccc(C)c3)cnn2C1c1ccccc1C (stereo unspecified)"
quantity_unit = "%"
value = 89

[[record]]
compound = "COc1ccc(-c2nn3c(=O)cc(CN4CCN(C(=O)Nc5cc(C)ccc5C)CC4)nc3s2)cc1"
quantity_unit = "%"
value = 99

[[record]]
compound = "Cc1ccccc1NC(=O)C(C)Sc1nnc(-c2ccccc2C)o1 (stereo unspecified)"
quantity_unit = "%"
value = 74

[[record]]
compound = "Cc1cc2oc(=O)c(CC(=O)O)c(C)c2c2occ(-c3ccccc3)c12"
quantity_unit = "%"
value = 53

[[record]]
compound = "O=S(=O)(c1ccccc1)c1nc(-c2ccc(F)cc2)oc1NCc1ccccc1"
quantity_unit = "%"
value = 67


[Q] Specify survival for `COc1cccc(CNC(=O)CN2C(=O)CCn3nc(-c4cn(C)c5ccccc45)cc32)c1OC` and stop.
[A] 76

[Q] Specify survival for `COCCNc1oc(-c2ccccc2)nc1S(=O)(=O)c1ccc(Br)cc1` and stop.
[A] 79

[Q] Specify survival for COc1ccc(C2C(C(=O)Nc3ccccc3)=C(C)Nc3c(C(=O)Nc4ccccc4)cnn32)cc1 (stereo unspecified) and stop.
[A] 126

[Q] Specify survival for `Cc1ccc2c(CC(=O)Nc3c(C(=O)Nc4cccc(Cl)c4)oc4ccccc34)coc2c1C` and stop.
[A] 62

[Q] Specify survival for CC(Sc1nnc(-c2ccccc2Br)o1)C(=O)Nc1cccc(Cl)c1 (stereo unspecified) and stop.
[A] 34

[Q] Specify survival for `CCOC(=O)C1CCN(C(=O)c2ccc(C)c(NC(=O)c3nsc4ccccc34)c2)CC1` and stop.
[A] 88

[Q] Specify survival for `CCOc1ccc(CNC(=O)Cn2nc(C)n3cccc3c2=O)cc1` and stop.
[A] 101

[Q] Specify survival for Cc1ccccc1NC(=O)C(C)Sc1nnc(-c2ccccc2O)o1 (stereo unspecified) and stop.
[A] 69

[Q] Specify survival for `CSc1ncc(C(=O)NCc2ccc(C)cc2)c(-c2ccccc2)n1` and stop.
[A] 0

[Q] Specify survival for `CCS(=O)(=O)c1oc(-c2ccc(F)cc2)nc1S(=O)(=O)c1ccccc1` and stop.
[A] -5

[Q] Specify survival for `Cc1cc2oc(=O)c(CC(=O)O)c(C)c2c2occ(-c3ccc(F)cc3)c12` and stop.
[A] 49

* * *

Tested on: DeltatarO mutant
Assay: S. aureus survival, RN4220 and DeltatarO strains – OD600, teichoic acid synthesis inhibitors, primary screen (AID 463173)
Settings: S. aureus RN4220 wild type/DeltatarO growth, OD600, 18 h, screened at 18.75 µg/mL (by protocol)
About 4,300 (8.3%) of roughly 52,000 compounds were called active. Cut-off read from the data, not from the text of the source: active = survival mostly below about 52% (no sharp cut-off); inactive = mostly above about 56%. The list comes from a sample in which actives are over-represented; it also holds close analogues and randomly drawn compounds.
I would appreciate it if you answered using one of these outcomes: t = active, f = inactive

The examples below pair each entry with its known result.
[[record]]
compound = "CC(C)COc1ccc(C(=O)N(Cc2ccc(N(C)C)cc2)Cc2ccco2)cc1"
measured_on = "DeltatarO mutant"
assigned_class = "f"

[[record]]
compound = "Cc1cccc(C)c1Nc1c(-c2ccccn2)nc2ccc(Cl)cn12"
measured_on = "DeltatarO mutant"
assigned_class = "f"

[[record]]
compound = "O=C1c2[nH]nc(-c3ccccc3O)c2C(c2ccc(Cl)cc2)N1CCc1ccccc1 (centres undefined)"
measured_on = "DeltatarO mutant"
assigned_class = "t"

[[record]]
compound = "CCOC(=O)C1CCCN(C(=O)c2cc3c(=O)[nH]c4ccc(C)cc4c3s2)C1 (centres undefined)"
measured_on = "DeltatarO mutant"
assigned_class = "f"

[[record]]
compound = "COc1ccc(Cl)cc1C1CC(=O)Nc2cc3c(cc21)OCCO3 (centres undefined)"
measured_on = "DeltatarO mutant"
assigned_class = "f"


[Q] Hi, do you know how O=S(=O)(c1ccccc1)N1CCC(O)(c2ccccc2)C2CCCCC21 (centres undefined) came out in this test?
[A] f

[Q] Hi, do you know how `CCCNc1c2c(nc3ccccc13)CC(C)(C)CC2=O` came out in this test?
[A] f

[Q] Hi, do you know how `CCOC(=O)c1c(C)c(C(=O)NCCc2ccc(OC)cc2)c(C)n1C` came out in this test?
[A] f

[Q] Hi, do you know how `CCOc1ccc(-c2noc(CSc3nnc(Cc4ccccc4)n3-c3cccc(C)c3)n2)cc1` came out in this test?
[A] f

[Q] Hi, do you know how O=C(NC1CCCCC1)C(Cc1ccccc1)N1C(=O)C2C3C=CC(C3)C2C1=O (centres undefined) came out in this test?
[A] f
